- Target Or System: UniProtKB Q00987
- Sequence (Q00987 whole entry): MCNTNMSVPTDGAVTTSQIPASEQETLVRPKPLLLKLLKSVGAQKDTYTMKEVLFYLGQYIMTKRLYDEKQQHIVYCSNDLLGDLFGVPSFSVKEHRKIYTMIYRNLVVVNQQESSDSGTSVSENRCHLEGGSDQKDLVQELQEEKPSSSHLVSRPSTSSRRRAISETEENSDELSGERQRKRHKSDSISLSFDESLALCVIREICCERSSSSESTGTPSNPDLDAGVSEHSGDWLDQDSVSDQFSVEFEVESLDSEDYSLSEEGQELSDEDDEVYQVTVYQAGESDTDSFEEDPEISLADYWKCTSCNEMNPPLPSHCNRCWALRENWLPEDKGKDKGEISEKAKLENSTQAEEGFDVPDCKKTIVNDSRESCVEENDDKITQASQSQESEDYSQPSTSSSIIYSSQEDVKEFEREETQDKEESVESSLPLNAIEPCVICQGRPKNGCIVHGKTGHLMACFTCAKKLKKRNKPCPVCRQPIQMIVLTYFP
Quantity Kind: pIC50
Answers are plain numbers, as −log10 of the molar value.

Compound	Quantity Kind	Result Number
CC12CCC3c4ccc(O)cc4CCC3C1CC1C2=NN(C(N)=S)C1c1ccc(Cl)cc1 (stereo not shown)	pIC50	4.19
CC12CCC3c4ccc(O)cc4CCC3C1CC1=C2NC(=NC#N)NC1c1ccccc1Cl (stereo not shown)	pIC50	4.55
CC12CCC3c4ccc(O)cc4CCC3C1CC1=C2NC(=N)NC1c1ccc(Cl)cc1 (stereo not shown)	pIC50	4.56

Here's the next entry for you.
stdin: Determine its reported pIC50: CC12CCC3c4ccc(O)cc4CCC3C1CC1=C2NC(=N)NC1c1ccccc1Cl (stereo not shown)
stdout: 4.78

---

Hi there, I'd appreciate the recorded IC50 for every entry that follows.
- Target Or System: EGFR (Homo sapiens)
- Sequence (P00533 25-1210): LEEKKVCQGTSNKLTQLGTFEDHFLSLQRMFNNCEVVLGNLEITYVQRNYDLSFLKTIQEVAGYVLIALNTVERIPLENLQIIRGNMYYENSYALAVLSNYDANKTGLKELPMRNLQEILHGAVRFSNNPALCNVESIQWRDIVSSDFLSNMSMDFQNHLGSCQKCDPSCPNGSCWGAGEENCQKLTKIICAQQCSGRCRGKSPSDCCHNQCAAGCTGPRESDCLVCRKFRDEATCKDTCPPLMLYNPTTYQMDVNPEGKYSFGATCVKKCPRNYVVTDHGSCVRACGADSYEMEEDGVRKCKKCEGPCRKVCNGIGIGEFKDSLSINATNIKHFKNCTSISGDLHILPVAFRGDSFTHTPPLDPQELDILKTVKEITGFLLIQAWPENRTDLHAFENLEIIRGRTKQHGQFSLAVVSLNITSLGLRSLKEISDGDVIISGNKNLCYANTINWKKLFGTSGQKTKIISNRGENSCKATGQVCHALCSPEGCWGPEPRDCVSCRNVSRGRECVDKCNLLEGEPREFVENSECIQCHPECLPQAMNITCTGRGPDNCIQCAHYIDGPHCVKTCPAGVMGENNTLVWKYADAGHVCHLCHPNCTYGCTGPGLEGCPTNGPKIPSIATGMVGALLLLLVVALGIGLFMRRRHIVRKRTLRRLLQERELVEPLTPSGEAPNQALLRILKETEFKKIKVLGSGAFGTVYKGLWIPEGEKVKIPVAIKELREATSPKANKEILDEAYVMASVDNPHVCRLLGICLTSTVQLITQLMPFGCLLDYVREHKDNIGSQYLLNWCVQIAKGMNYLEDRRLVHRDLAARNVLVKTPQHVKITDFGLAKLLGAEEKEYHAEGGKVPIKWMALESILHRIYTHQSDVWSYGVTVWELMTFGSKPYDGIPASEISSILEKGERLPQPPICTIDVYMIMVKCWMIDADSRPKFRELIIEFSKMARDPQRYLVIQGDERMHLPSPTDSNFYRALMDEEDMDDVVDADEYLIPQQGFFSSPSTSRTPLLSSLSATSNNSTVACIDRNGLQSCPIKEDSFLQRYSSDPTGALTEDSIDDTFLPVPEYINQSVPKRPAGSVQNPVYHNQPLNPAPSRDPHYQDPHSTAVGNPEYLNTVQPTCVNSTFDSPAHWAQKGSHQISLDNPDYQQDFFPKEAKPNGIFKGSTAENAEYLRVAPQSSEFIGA
Give bare numbers, in nM.

The following molecules have reported results that may help.
Molecule	Endpoint Unit	Result Number
CC12CCC3c4ccc(O)cc4CCC3C1CC1=C2NC(=S)NC1c1ccc(Cl)cc1 (centres unmarked)	nM	98
CC12CCC3c4ccc(O)cc4CCC3C1CC1=C2NC(=NC#N)NC1c1ccc(Cl)cc1 (centres unmarked)	nM	91
CC12CCC3c4ccc(O)cc4CCC3C1CC1=C2NC(=NC#N)NC1c1ccccc1Cl (centres unmarked)	nM	90
CC12CCC3c4ccc(O)cc4CCC3C1CC1=C2NC(=O)NC1c1ccc(Cl)cc1 (centres unmarked)	nM	155
CC12CCC3c4ccc(O)cc4CCC3C1CC1C2=NN(C(N)=O)C1c1ccc(Cl)cc1 (centres unmarked)	nM	227

Dear colleague, could you please provide IC50 for the molecules listed below?
1. CC12CCC3c4ccc(O)cc4CCC3C1CC1=C2NC(=N)NC1c1ccccc1Cl (centres unmarked)
2. CC12CCC3c4ccc(O)cc4CCC3C1CC1=C2NC(=S)NC1c1ccccc1Cl (centres unmarked)
3. Oc1cc(O)c2cc(O)c(-c3cc(O)c(O)c(O)c3)[o+]c2c1 [Delphinidin, reference compound]

stdout:
86
95
6270

---

Quantity Kind: melting point

The following molecules have reported results that may help.
Molecule	melting point
CC12CCC3c4ccc(O)cc4CCC3C1CC1C2=NN(C(N)=S)C1c1ccc(Cl)cc1 (stereo not drawn)	252 to 256 °C
CC12CCC3c4ccc(O)cc4CCC3C1CC1=C2NC(=NC#N)NC1c1ccccc1Cl (stereo not drawn)	223 °C
CC12CCC3c4ccc(O)cc4CCC3C1CC1=C2NC(=NC#N)NC1c1ccc(Cl)cc1 (stereo not drawn)	282 to 284 °C
CC12CCC3c4ccc(O)cc4CCC3C1CC1C2=NN(C(N)=O)C1c1ccccc1Cl (stereo not drawn)	298 to 300 °C
CC12CCC3c4ccc(O)cc4CCC3C1CC1=C2NC(=N)NC1c1ccc(Cl)cc1 (stereo not drawn)	326 to 328 °C
CC12CCC3c4ccc(O)cc4CCC3C1CC1C2=NN(C(N)=O)C1c1ccc(Cl)cc1 (stereo not drawn)	248 to 250 °C

Dear colleague, could you please provide melting point for the molecules listed below?
1. CC12CCC3c4ccc(O)cc4CCC3C1CC1=C2NC(=S)NC1c1ccccc1Cl (stereo not drawn)
2. CC12CCC3c4ccc(O)cc4CCC3C1CC1=C2NC(=N)NC1c1ccccc1Cl (stereo not drawn)
3. CC12CCC3c4ccc(O)cc4CCC3C1CC1=C2NC(=O)NC1c1ccc(Cl)cc1 (stereo not drawn)
4. CC12CCC3c4ccc(O)cc4CCC3C1CC1=C2NC(=S)NC1c1ccc(Cl)cc1 (stereo not drawn)
5. CC12CCC3c4ccc(O)cc4CCC3C1CC1C2=NN(C(N)=S)C1c1ccccc1Cl (stereo not drawn)

stdout:
["290 to 292 °C", "286 to 288 °C", "308 to 310 °C", "333 to 335 °C", "294 to 296 °C"]

stdin: Determine its reported melting point: CC12CCC3c4ccc(O)cc4CCC3C1CC1=C2NC(=O)NC1c1ccccc1Cl (stereo not drawn)
stdout: 266 to 268 °C
